Below is a list of entries, each paired with its recorded growth inhibition value.
assay: NCI Yeast Anticancer Drug Screen. Data for the cln2 rad14 strain (AID 165);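 further: 0% = growth equal to vehicle treated cultures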; conditions: S. cerevisiae cln2 rad14 strain, at 50.0 µM, stronger effect = higher value
This is part of a sample that, as a whole, favours compounds with a hit. Of some 79,000 tested, about 15% had one in any assay.
Give the quantity in %, number only.

Answered cases to consult:
>  <MOLECULE>
COc1ccc(C(C)=O)cc1CCCO

>  <growth inhibition (%)>
30.6

$$$$
>  <MOLECULE>
O=C(CN1CCN(Cc2ccccc2)CC1)N1CCCn2c1nc1ccccc1c2=O

>  <growth inhibition (%)>
7.6

$$$$
>  <MOLECULE>
COC(=O)c1c2c(cc3c1CC1(Cc4ccccc4C1)C3)CCC2

>  <growth inhibition (%)>
0.6

$$$$
>  <MOLECULE>
O=C(O)c1ccccc1C(NC(=O)N1C(=O)C=CC1=O)NC(=O)N1C(=O)C=CC1=O

>  <growth inhibition (%)>
16.4

$$$$
>  <MOLECULE>
CC1(CO)OC(n2cnc3c(N)ncnc32)C(O)C1O (configuration not stated)

>  <growth inhibition (%)>
-8.25

$$$$
>  <MOLECULE>
CC[C@]12CCCN3CCc4c(n(c5ccccc45)C(=O)C1)[C@@H]32

>  <growth inhibition (%)>
29.4

$$$$
>  <MOLECULE>
CCC[CH2][Sn]([CH2]CCC)([O]C(=O)c1nccnc1N)[O]C(=O)c1nccnc1N

>  <growth inhibition (%)>
92.2

$$$$
>  <MOLECULE>
O=C1c2ccccc2C(=O)c2c(Nc3ccc(Nc4cccc5c4C(=O)c4ccccc4C5=O)c4c3C(=O)c3ccccc3C4=O)cccc21

>  <growth inhibition (%)>
-3.2

$$$$

`COc1cc(S(=O)(=O)O)ccc1N=N/C(=N\Nc1ccc(S(=O)(=O)O)cc1OC)C(N)=O` has a reported growth inhibition of 18.6

`COc1c(NC(=O)c2ccc(Cl)c(Cl)c2)cccc1[N+](=O)[O-]` has a reported growth inhibition of -2.85

`O=C(COc1c(Cl)c(Cl)c(Cl)c(Cl)c1Cl)Nc1cccc(Cl)c1` has a reported growth inhibition of 15.2

`CCOC(=O)/C=C/SCCC(=O)OC` has a reported growth inhibition of 12.4

`O=C(/C=C/c1ccc(Cl)cc1)c1ccncc1` has a reported growth inhibition of 18

NC(CC1=CS(=O)(=O)c2ccc(Cl)cc21)C(=O)O (configuration not stated) has a reported growth inhibition of -16.2

`CCN(CC)CCOC(=O)c1ccc(N=Nc2ccc(O)cc2O)cc1` has a reported growth inhibition of -21.7

`CN(NC1=NCCO1)c1ccc2ccccc2c1` has a reported growth inhibition of -23.5

---

test: NCI Yeast Anticancer Drug Screen. Data for the rad50 strain (AID 155);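 further: 0% = growth of vehicle-only cultures of the same strain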; details: S. cerevisiae rad50 strain growth inhibition; at 50.0 µM; stronger effect = higher value
About 79,000 compounds went through this panel and 15% of them were active in at least one assay; those are over-represented in the sample as a whole.
ATTRIBUTE_MEASURED: growth inhibition (%)
Give the quantity in %, number only.

Answered cases to consult:
>  <COMPOUND>
O=[N+]([O-])c1ccccc1S(=O)(=O)NC1c2ccccc2Oc2ccccc21

>  <growth inhibition / %>
31.9

$$$$
>  <COMPOUND>
CC#CCN(C(C)C)C(C)C

>  <growth inhibition / %>
15.4

$$$$
>  <COMPOUND>
Cc1cc(C)nc(NS(=O)(=O)c2ccc(NC(=O)c3ccncc3)cc2)n1

>  <growth inhibition / %>
-7.75

$$$$
>  <COMPOUND>
CC(=O)NC(C)CC1=CC(=O)C(C)=CC1=O (stereo unspecified)

>  <growth inhibition / %>
1.45

$$$$

`CC(C)CCNc1nc(N)[nH]c(=O)c1NC=O` has a reported growth inhibition of -16.7

CNC(=O)SCC(N)C(=O)O (stereo unspecified) has a reported growth inhibition of 1.25

`CS(=O)(=O)c1ccc(N2CCCCC2)c([N+](=O)[O-])c1` has a reported growth inhibition of 29.9

`C=CCCCN(c1ccc(C(=O)OCC)cc1)S(=O)(=O)c1ccc(C)cc1` has a reported growth inhibition of 28.3

`CCN(CC)CCNc1ccc2ncn3c4ccccc4c(=O)c1c23` has a reported growth inhibition of 19.9

---

assay: NCI Yeast Anticancer Drug Screen. Data for the mec2-1 strain (AID 157); conditions: S. cerevisiae mec2-1 strain, at 50.0 µM, stronger effect = higher value
About 79,000 compounds went through this panel and 15% of them were active in at least one assay; those are over-represented in the sample as a whole.
ATTRIBUTE_MEASURED: growth inhibition (%)
Give the quantity in %, number only.

Answered cases to consult:
>  <MOLECULE>
O=C(NO)C(=O)Nc1ccc(Cl)cc1[N+](=O)[O-]

>  <growth inhibition / %>
28.4

$$$$
>  <MOLECULE>
CCN(CC)Cc1cc(C)c(O)c(N=Nc2ccc(-c3ccc(N)c(OC)c3)cc2OC)c1C

>  <growth inhibition / %>
12.7

$$$$
>  <MOLECULE>
CC(c1ccccc1)N1OC1(c1ccccc1)c1ccccc1 (configuration not stated)

>  <growth inhibition / %>
50.4

$$$$
>  <MOLECULE>
O=c1[nH]nnc2ccccc12

>  <growth inhibition / %>
4.8

$$$$
>  <MOLECULE>
O=C(NN1C(=O)C(Cl)C1c1cccc(Cl)c1)c1ccccc1O (configuration not stated)

>  <growth inhibition / %>
-29.2

$$$$

Next molecule, please.
CC(C)=NC(C(=O)O)C(C)(C)S (configuration not stated) has a reported growth inhibition of -15.2

---

test: NCI Yeast Anticancer Drug Screen. Data for the sgs1 mgt1 strain (AID 161);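 further: 0% = growth of cultures given vehicle only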; details: S. cerevisiae sgs1 mgt1 strain, at 50.0 µM, stronger effect = higher value
This is part of a sample that, as a whole, favours compounds with a hit. Of some 79,000 tested, about 15% had one in any assay. Where a SMILES comes first, the peptide text is derived from it. The star is where a group is joined. Boc = CC(C)(C)OC(=O)*; tBu = CC(C)(C)*
ATTRIBUTE_MEASURED: growth inhibition (%)
Give the quantity in %, number only.

>  <COMPOUND>
Cc1cc(Cl)c(Cl)cc1NC(=O)c1ccccc1Cl

>  <growth inhibition / %>
4

$$$$

CCOC(=O)C(C)OC(=O)C(C)OC(C)=O (stereo not drawn) has a reported growth inhibition of 17.1

`CC(=O)N/N=C/c1cccc([N+](=O)[O-])c1` has a reported growth inhibition of -4.55

`CC(=O)Nc1cc2cc(NC(=O)C(Cl)(Cl)Cl)ccc2oc1=O` has a reported growth inhibition of -4.65

c1ccc2c(c1)N=C(c1ccc3ccccc3c1)CC(c1cccc3ccccc13)S2 (stereo not drawn) has a reported growth inhibition of -33.1

`COC(=O)c1ccc(C(=O)OC)cc1` has a reported growth inhibition of 15.9

`O=C1CCC(CC2CCCCC2)CC1` has a reported growth inhibition of -2.8

CC(OC(C)(C)C)C(NC(=O)C(N)CCCCNC(=O)OC(C)(C)C)C(=O)NC(Cc1ccccc1)C(=O)O (stereo not drawn) (H-Lys(Boc)-Thr(tBu)-Phe-OH; configuration not given here) has a reported growth inhibition of -39.4

`c1ccc(COc2ccc(OCc3ccccc3)cc2)cc1` has a reported growth inhibition of 13.1

CC(O)C1CCCCN1 (stereo not drawn) has a reported growth inhibition of -8.85

CC(C#N)NC(=O)NC(C)C(N)=O (stereo not drawn) has a reported growth inhibition of -5

`CC(C)C(CN)(C(C)C)C(C)C` has a reported growth inhibition of -8.65

COC1/C=C\OC2(C)Oc3c(C)c(O)c4c(O)c(c5[nH]cnc5c4c3C2=O)NC(=O)/C(C)=C\C=C\C(C)C(O)C(C)C(O)C(C)C(OC(C)=O)C1C (stereo not drawn) has a reported growth inhibition of 24

---

Below is a list of entries, each paired with its recorded growth inhibition value.
experiment: NCI Yeast Anticancer Drug Screen. Data for the rad50 strain (AID 155);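 further: 0% = growth of vehicle-only cultures of the same strain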; conditions: S. cerevisiae rad50 strain growth inhibition; at 50.0 µM; stronger effect = higher value
About 79,000 compounds went through this panel and 15% of them were active in at least one assay; those are over-represented in the sample as a whole.
Give the quantity in %, number only.

>  <COMPOUND>
CCOC=C(C(=O)OCC)C(=O)OCC

>  <MEASUREMENT_UNITS>
%

>  <VALUE_OBSERVED>
22.1

$$$$
>  <COMPOUND>
CCN(CC)C(=O)COc1ccc(Cl)cc1

>  <MEASUREMENT_UNITS>
%

>  <VALUE_OBSERVED>
2.05

$$$$
>  <COMPOUND>
O=C1CC[C@@H](S(=O)(=O)c2ccccc2)[C@H](/C=C/c2ccccc2)O1

>  <MEASUREMENT_UNITS>
%

>  <VALUE_OBSERVED>
-5.5

$$$$
>  <COMPOUND>
NC(CSCCC(=O)O)C(=O)O (configuration not stated)

>  <MEASUREMENT_UNITS>
%

>  <VALUE_OBSERVED>
-16.9

$$$$
>  <COMPOUND>
C/C(=N\NC(=O)c1ccncc1)c1cccc(Br)c1

>  <MEASUREMENT_UNITS>
%

>  <VALUE_OBSERVED>
12

$$$$

`c1ccc(Cc2c[nH]c3ccccc23)cc1` has a reported growth inhibition of 9.45

CC(OC(=O)CC(c1ccccc1)N1CCCCC1)c1ccccc1 (configuration not stated) has a reported growth inhibition of 64.7
